- target.entity: Focal adhesion kinase 1 (Homo sapiens)
- protocol.details: small-molecule microarray binders of FAK, primary screen, biochemical, 635/667 nm fluorescence, BSA, DTT (AID 1130);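 note: composite of spot emission at 667 nm and signal to noise over triplicate slides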
- condition.summary: PTK2 binding, 635 nm fluorescence, higher = more signal
Response field class: enum, chosen by comparing composite z-score against low: < 0.03; mid: ≥ 0.03 and < 0.5; high: ≥ 0.5

Previously resolved entries follow.
{"molecule": "CC(C)C(=C=CC[C@@H](O)c1cccc(OCCO)c1)CCO", "target.entity": "Focal adhesion kinase 1 (Homo sapiens)", "class.name": "low"}
{"molecule": "CCCCNC(=O)c1ccc(C#C[Si](C)(C)C)c(OC(C)=O)c1", "target.entity": "Focal adhesion kinase 1 (Homo sapiens)", "class.name": "mid"}
{"molecule": "O=C1c2ccccc2[C@](Cc2ccccc2I)(C(=O)O)[C@H](c2ccc(CO)cc2)N1Cc1ccccc1", "target.entity": "Focal adhesion kinase 1 (Homo sapiens)", "class.name": "high"}
{"molecule": "CC(C)C[C@@H]1NC(=O)[C@H]2C[C@@H](C(=O)NCCCCCNC(=O)CS)[C@@H](c3ccc(O)cc3)N2C1=O", "target.entity": "Focal adhesion kinase 1 (Homo sapiens)", "class.name": "high"}
{"molecule": "CC(C)CNC(=O)[C@@H]1c2ccccc2C(=O)N(Cc2ccccc2Cl)[C@H]1c1ccc(CO)cc1", "target.entity": "Focal adhesion kinase 1 (Homo sapiens)", "class.name": "mid"}
{"molecule": "O=C1C2C=CC(C(O)c3cccc(O)c3)N(Nc3ccccc3F)C2C(=O)N1c1ccccc1 (stereo not given)", "target.entity": "Focal adhesion kinase 1 (Homo sapiens)", "class.name": "mid"}
{"molecule": "CCCCC=C[C@@H](NC(=O)c1ccc(C(F)(F)F)cc1)c1ccccc1", "target.entity": "Focal adhesion kinase 1 (Homo sapiens)", "class.name": "mid"}
{"molecule": "CCC(CC)C(O)C1C=CC2C(=O)N(C)C(=O)C2N1N1CCCCC1 (stereo not given)", "target.entity": "Focal adhesion kinase 1 (Homo sapiens)", "class.name": "low"}

Enquiry: Input COc1ccc([Si](C)(C)[C@H]2[C@H](CC(=O)N3Cc4ccccc4C[C@H]3CO)O[C@@]3(C(=O)N(Cc4cccc(N5C(=O)c6cccc7cccc5c67)c4)c4ccccc43)[C@@H]2C)cc1 ; output its category
Return: mid

Enquiry: Band assignment needed for C[N+](C)(C)CCCCCCNC(=O)[C@@H]1C[C@@H]2C(=O)N[C@@H](Cc3ccccc3)C(=O)N2[C@@H]1c1ccc(O)cc1 please.
Return: low

Enquiry: Which class holds Cc1ccc(S[C@]2(C(=O)NCC(F)(F)F)CC(=O)N(C3CCCCC3)[C@@H]2c2ccc(CO)cc2)cc1 ?
Return: low

Enquiry: Entry COCCOC(=O)N1C(=O)[C@@]2(c3cc(C#CCC(C(=O)OC)C(=O)OC)ccc31)[C@H](C(=O)N1CCc3cc(OC)c(OC)cc3C1)[C@H]1C(=O)O[C@H](c3ccccc3)[C@H](c3ccccc3)N1[C@@H]2c1ccc(O)cc1 belongs to which category?
Return: mid

----------
- protocol.details: inhibitors of hydroxyurea-induced Chk1 phosphorylation, primary screen, imaging, HeLa, phospho-Chk1 antibody, percent positive cells (AID 1186)
- condition.summary: hydroxyurea-induced phospho-Chk1 immunofluorescence imaging, higher = more signal
readout: z-score
Respond using a number only.

As a guide, the following entries are already answered.
{"compound": "CC(=O)c1ccc(C(O)C2C=CC3C(=O)N(C)C(=O)C3N2NC(=O)OC(C)(C)C)cc1 (configuration not stated)", "z-score": 0.976}
{"compound": "CCCC=C(CCC)[C@@H](NC(=O)c1ccco1)c1ccc(C(=O)OC)cc1", "z-score": -0.125}
{"compound": "COCCOC(=O)N1C(=O)[C@@]2(c3cc(C#CCC(C(=O)OC)C(=O)OC)ccc31)[C@H](C(=O)N1CCCCCCC1)[C@H]1C(=O)O[C@H](c3ccccc3)[C@H](c3ccccc3)N1[C@@H]2c1ccccc1OCCO", "z-score": 0.122}
{"compound": "CN(C)C(=O)[C@]1(Cc2ccccc2CN=[N+]=[N-])N=C(c2ccc(OCCCO)cc2)O[C@@H]1c1ccccc1N=[N+]=[N-]", "z-score": -0.72}
{"compound": "CCCC[C@@H]1C[C@H]1[C@@H](NC(=O)c1ccc(C(F)(F)F)cc1)c1ccc(C(=O)OC)cc1", "z-score": 0.894}
{"compound": "C[N+](C)(C)CCCCCCNC(=O)[C@@H]1C[C@@H]2C(=O)N[C@@H](Cc3ccccc3)C(=O)N2[C@@H]1c1ccc(O)cc1", "z-score": 0.459}

Could you now look at the following compound, please?
Enquiry: Recall and state the measured z-score for COc1ccc(NN2C(C(O)c3ccc(OC)cc3)C=CC3C(=O)N(C4CCCCC4)C(=O)C32)cc1 (configuration not stated) .
Return: -1.28
